Reference for the values: ChEMBL document CHEMBL1146318

- Species on record: Homo sapiens
- Experimental protocol: Selectivity for calcium channel Cav2.2 over calcium channel L type
Answer each item with its documented Ratio IC50.
One number for each entry.

Cc1ccc(-c2ccncc2[C@H]2SCC(=O)N2CC(C)C)cc1 (stereo in doubt; 60)	2.9

Field: Ratio IC50. Fill in for each record below.
1. CC(C)CNC(=O)CC1SC(c2ccc(F)c(Br)c2)N(CCc2ccccn2)C1=O (stereo unspecified)
2. Cc1ccc(-c2cnccc2C2SCC(=O)N2CC(C)C)cc1 (stereo unspecified)
3. CC(C)CN1C(=O)COC1c1cnccc1-c1ccc(Br)cc1 (stereo unspecified)
4. O=C1CSC(c2ccncc2-c2ccc(C(F)(F)F)cc2)N1C1CCCC1 (stereo unspecified)
5. Cc1ccc(-c2ccncc2C2SCC(=O)N2CC(C)C)cc1 (stereo unspecified)

Given back:
[2.2, 13.6, 6.6, 3.1, 16.7]

Field: Ratio IC50. Fill in for each record below.
1. CC(C)CN1C(=O)CSC1c1ccncc1-c1ccc(F)cc1 (stereo unspecified)
2. CC(C)CN1C(=O)CSC1c1ccncc1-c1ccc(Cl)cc1 (stereo unspecified)
3. Fc1ccc(C(c2ccc(F)cc2)N2CCN(C/C=C/c3ccccc3)CC2)cc1
4. CC(C)CN1C(=O)CSC1c1ccncc1-c1ccc(Br)cc1 (stereo unspecified)
5. CC(C)CN1C(=O)CSC1c1cccnc1-c1ccc(Br)cc1 (stereo unspecified)
6. CC(C)CN1C(=O)CSC1c1cccnc1-c1ccc(F)cc1 (stereo unspecified)
7. CC(C)CN1C(=O)CSC1c1cnccc1-c1ccc(F)cc1 (stereo unspecified)
8. CCc1ccc(-c2ccncc2C2SCC(=O)N2CC(C)C)cc1 (stereo unspecified)

Given back:
2.8
7.9
0.5
6.1
8.9
2.6
5.2
6.3

Field: Ratio IC50. Fill in for each record below.
1. CC(C)CN1C(=O)CS[C@@H]1c1cnccc1-c1ccc(C(F)(F)F)cc1 (stereo in doubt; 59)
2. O=C1CSC(c2cnccc2-c2ccc(Br)cc2)N1C1CCCCC1 (stereo unspecified)

Given back:
29.1
1.5

---

- System under test: Voltage-dependent N-type calcium channel subunit alpha-1B (Homo sapiens)
- Sequence (Q00975 whole entry): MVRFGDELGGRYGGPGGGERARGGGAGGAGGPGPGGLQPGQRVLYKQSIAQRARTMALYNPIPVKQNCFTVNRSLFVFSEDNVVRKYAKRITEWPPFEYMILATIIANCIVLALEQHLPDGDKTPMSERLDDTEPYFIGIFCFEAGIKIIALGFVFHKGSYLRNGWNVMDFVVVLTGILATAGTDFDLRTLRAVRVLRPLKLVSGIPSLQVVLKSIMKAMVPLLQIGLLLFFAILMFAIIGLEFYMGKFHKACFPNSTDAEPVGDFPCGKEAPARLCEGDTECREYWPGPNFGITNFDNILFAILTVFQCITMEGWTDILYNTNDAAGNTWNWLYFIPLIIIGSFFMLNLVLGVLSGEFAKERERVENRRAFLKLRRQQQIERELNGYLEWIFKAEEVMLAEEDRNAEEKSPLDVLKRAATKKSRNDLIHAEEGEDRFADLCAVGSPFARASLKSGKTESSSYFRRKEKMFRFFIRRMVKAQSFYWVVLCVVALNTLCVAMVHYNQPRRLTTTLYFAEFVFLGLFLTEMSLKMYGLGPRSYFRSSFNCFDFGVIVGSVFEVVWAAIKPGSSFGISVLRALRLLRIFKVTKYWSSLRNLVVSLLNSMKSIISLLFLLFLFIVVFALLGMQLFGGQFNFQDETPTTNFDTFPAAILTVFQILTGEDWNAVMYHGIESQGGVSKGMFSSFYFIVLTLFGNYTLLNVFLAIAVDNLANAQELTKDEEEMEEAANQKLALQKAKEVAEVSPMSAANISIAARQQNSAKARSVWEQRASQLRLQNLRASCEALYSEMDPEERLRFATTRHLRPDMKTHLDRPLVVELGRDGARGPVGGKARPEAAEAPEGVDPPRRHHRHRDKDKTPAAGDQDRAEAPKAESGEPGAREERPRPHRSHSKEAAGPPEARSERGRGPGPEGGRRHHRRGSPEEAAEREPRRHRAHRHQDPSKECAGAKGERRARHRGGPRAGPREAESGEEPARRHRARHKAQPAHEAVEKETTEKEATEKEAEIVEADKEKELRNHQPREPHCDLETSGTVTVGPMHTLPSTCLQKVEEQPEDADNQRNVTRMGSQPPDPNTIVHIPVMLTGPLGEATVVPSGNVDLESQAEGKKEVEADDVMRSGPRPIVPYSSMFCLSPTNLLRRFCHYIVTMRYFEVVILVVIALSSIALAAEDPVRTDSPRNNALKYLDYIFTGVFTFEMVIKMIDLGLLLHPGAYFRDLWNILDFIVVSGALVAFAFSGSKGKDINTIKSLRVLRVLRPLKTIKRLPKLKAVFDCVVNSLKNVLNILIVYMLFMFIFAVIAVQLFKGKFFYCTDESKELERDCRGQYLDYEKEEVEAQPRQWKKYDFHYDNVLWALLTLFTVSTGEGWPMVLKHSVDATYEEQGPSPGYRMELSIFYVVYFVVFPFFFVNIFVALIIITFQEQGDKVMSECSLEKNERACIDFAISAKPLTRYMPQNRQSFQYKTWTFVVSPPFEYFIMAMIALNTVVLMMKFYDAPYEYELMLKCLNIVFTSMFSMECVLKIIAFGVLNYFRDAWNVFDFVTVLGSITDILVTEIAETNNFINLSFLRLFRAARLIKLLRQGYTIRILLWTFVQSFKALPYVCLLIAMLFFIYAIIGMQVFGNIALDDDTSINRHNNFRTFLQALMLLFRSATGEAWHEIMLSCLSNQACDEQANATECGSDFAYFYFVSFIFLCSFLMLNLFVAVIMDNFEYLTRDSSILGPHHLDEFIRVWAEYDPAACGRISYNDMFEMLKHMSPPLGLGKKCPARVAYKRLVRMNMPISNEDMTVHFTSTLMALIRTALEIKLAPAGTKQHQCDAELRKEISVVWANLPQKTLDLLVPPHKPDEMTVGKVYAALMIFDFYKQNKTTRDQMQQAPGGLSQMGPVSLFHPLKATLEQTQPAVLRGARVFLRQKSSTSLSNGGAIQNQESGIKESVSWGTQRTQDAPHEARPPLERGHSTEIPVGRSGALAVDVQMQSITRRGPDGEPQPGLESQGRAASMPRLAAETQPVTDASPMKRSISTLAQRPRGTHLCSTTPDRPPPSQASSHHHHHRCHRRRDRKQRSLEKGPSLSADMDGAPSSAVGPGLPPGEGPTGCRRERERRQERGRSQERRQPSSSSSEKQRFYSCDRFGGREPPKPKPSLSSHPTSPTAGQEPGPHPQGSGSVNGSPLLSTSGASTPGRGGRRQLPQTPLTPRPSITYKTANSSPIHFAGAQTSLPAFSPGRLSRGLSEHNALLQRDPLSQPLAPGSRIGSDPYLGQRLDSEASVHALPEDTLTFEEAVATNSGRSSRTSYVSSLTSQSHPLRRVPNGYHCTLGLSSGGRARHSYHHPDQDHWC
- Experimental protocol: Inhibition of calcium channel Cav2.2 in IMR32 cells
Observable: IC50
Dear colleague, please send the value followed by its unit.

These recorded examples may help you get a feel for the data.
CC(C)CN1C(=O)CSC1c1ccncc1-c1ccc(Cl)cc1 (stereo unspecified)	580 nM
CC(C)CN1C(=O)CS[C@@H]1c1cnccc1-c1ccc(C(F)(F)F)cc1 (stereo in doubt; 58)	3320 nM
COc1ccc(CN2CCN(C(c3ccc(F)cc3)c3ccc(F)cc3)CC2)c(OC)c1OC	2430 nM
O=C1CSC(c2cccc(C(F)(F)F)c2)N1CCc1ccccn1 (stereo unspecified)	2410 nM
CC(C)CN1C(=O)CSC1c1cnccc1-c1ccc(C(F)(F)F)cc1 (stereo unspecified)	1070 nM

Field: IC50. Fill in for each record below.
1. CC(C)CN1C(=O)CSC1c1cnccc1-c1ccc(F)cc1 (stereo unspecified)
2. CC(C)CN1C(=O)CSC1c1ccncc1-c1ccc(F)cc1 (stereo unspecified)
3. Cc1ccc(-c2ccncc2C2SCC(=O)N2CC(C)C)cc1 (stereo unspecified)
4. C=Cc1ccc(-c2ncccc2C2SCC(=O)N2CC(C)C)cc1 (stereo unspecified)

Given back:
1290 nM
4150 nM
490 nM
1330 nM

Field: IC50. Fill in for each record below.
1. CC(C)CN1C(=O)CS[C@@H]1c1cnccc1-c1ccc(C(F)(F)F)cc1 (stereo in doubt; 59)
2. C=Cc1ccc(-c2ccncc2C2SCC(=O)N2CC(C)C)cc1 (stereo unspecified)
3. CC(C)CN1C(=O)CSC1c1cccnc1-c1ccc(C(F)(F)F)cc1 (stereo unspecified)
4. CC(C)CNC(=O)CC1SC(c2ccc(F)c(Br)c2)N(CCc2ccccn2)C1=O (stereo unspecified)
5. CCc1ccc(-c2ccncc2C2SCC(=O)N2CC(C)C)cc1 (stereo unspecified)
6. CC(C)CN1C(=O)CSC1c1cnccc1-c1ccccc1 (stereo unspecified)
7. CC(C)CN1C(=O)CSC1c1cccnc1-c1ccc(F)cc1 (stereo unspecified)

Given back:
1. 770 nM
2. 510 nM
3. 560 nM
4. 1340 nM
5. 880 nM
6. 3980 nM
7. 4920 nM

Field: IC50. Fill in for each record below.
1. O=C1C[S+]([O-])C(c2ccc(F)c(Br)c2)N1CCc1ccccn1 (stereo unspecified)
2. CN(C)c1ccc(-c2cnccc2C2SCC(=O)N2C2CCCC2)cc1 (stereo unspecified)
3. COc1ccc(-c2cnccc2C2SCC(=O)N2CC(C)C)cc1 (stereo unspecified)
4. CC(C)CN1C(=O)CSC1c1cccnc1-c1ccc(Br)cc1 (stereo unspecified)
5. CC(C)CN1C(=O)C[S+]([O-])C1c1cnccc1-c1ccc(Br)cc1 (stereo unspecified)
6. O=C1CS(=O)(=O)C(c2ccc(F)c(Br)c2)N1CCc1ccccn1 (stereo unspecified)

Given back:
29800 nM
10700 nM
1400 nM
700 nM
3970 nM
8130 nM
